# assay: chemical genetic growth profiling, strain panel (AID 1159580);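 note: tested at 20 µM; growth read once vehicle control cultures reached saturation at 30 °C; 1 = growth at the plate median or of vehicle wells; lower values mean less growth of the strain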
# particulars: S. cerevisiae deletion strains, growth OD, locus YDR159W, strain sac3
About 2,000 (36%) of roughly 5,500 compounds were called active. About 18% were inconclusive and are not listed. Cut-off read from the data, not from the text of the source: active = normalized growth mostly below about 0.91 (no sharp cut-off); inconclusive = no clear call, values can overlap the other calls; inactive = mostly above about 0.92. The list shows a part of the results.
Entry note: the call must match one of yes (1) = active, no (0) = inactive

Previously resolved entries follow.
compound	discrete label
NC(=O)C(c1ccccc1)(c1ccccc1)C1CCN(CCc2ccc3c(c2)CCO3)C1 (stereo unspecified)	no (0)
c1ccc(N=Nc2ccccc2)cc1	no (0)

Exam item: Answer briefly: the call reported for "COP(=O)(OC)OC=C(Cl)Cl" in this assay.
Marked response: no (0)

Exam item: How was COCCc1ccc(OCC(O)CNC(C)C)cc1 (stereo unspecified) classified in this test?
Marked response: no (0)

Exam item: Test call for this compound, please: ClC1=C(Cl)C2(Cl)C3C(Cl)C=CC3C1(Cl)C2(Cl)Cl (stereo unspecified)
Marked response: yes (1)

Exam item: Hi team, can someone confirm the assay call for "CC(=O)OC(C)(C)[C@@H]1Cc2cc3ccc(=O)oc3cc2O1" ?
Marked response: no (0)

---

# assay: chemical genetic growth profiling, strain panel (AID 1159580);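 note: tested at 20 µM; growth read once vehicle control cultures reached saturation at 30 °C; 1 = growth at the plate median or of vehicle wells; lower values mean less growth of the strain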
# particulars: S. cerevisiae deletion strains, growth OD, locus YGL167C, strain pmr1, hits give low values
In all, about 5,500 compounds went through this assay and about 2,000 (36%) were called active. About 18% were inconclusive and are not listed. The list shows a part of the results.
Please note: normalized growth exactly at 1 is not satisfied. Only values below 1 get satisfied.

The following molecules have reported results that may help.
molecule	discrete label
CCN(CC)CCCC(C)Nc1c2ccc(Cl)cc2nc2ccc(OC)cc12 (configuration not stated)	not satisfied
CN1CCC(=C2c3ccccc3CCc3sccc32)CC1	satisfied
CCN(CC)CCCC(C)Nc1ccnc2cc(Cl)ccc12 (configuration not stated)	not satisfied

Exam item: # check: normalized growth < 1 for "CN1CCC(=C2c3ccccc3Sc3ccccc32)CC1"
Marked response: not satisfied

---

# assay: chemical genetic growth profiling, strain panel (AID 1159580);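 note: tested at 20 µM; growth read once vehicle control cultures reached saturation at 30 °C; 1 = growth at the plate median or of vehicle wells; lower values mean less growth of the strain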
# particulars: S. cerevisiae deletion strains, growth OD, locus YJR075W, strain HOC1, hits give low values
Screen size: about 5,500 compounds; about 2,000 (36%) were called active. About 18% were inconclusive and are not listed. Some of the results follow.
reported endpoint: normalized growth
Numbers only.

Sample records with normalized growth:
mol	normalized growth
CCO/C=C1\SC(=S)N(CCc2ccccc2)C1=O	0.843
CC(=O)OCC[N+](C)(C)C	0.978
O=C(O)c1cc2ccccc2[nH]1	1.01
COc1ccc2c(c1OC)C(=O)O[C@H]2[C@H]1c2cc3c(cc2CCN1C)OCO3	1
COC(=O)c1sccc1OC(=O)c1c(F)cccc1F	0.97

Give normalized growth for each of the items listed below.
1. O=C(O)c1nn(Cc2ccc(Cl)cc2Cl)c2ccccc12
2. O=C(O)c1c2ccccc2cc2ccccc12

Marked response:
1. 1.02
2. 1.01

---

Record form. Attribute: normalized growth. Fill in for each entry.
# assay: chemical genetic growth profiling, strain panel (AID 1159580);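 note: tested at 20 µM; growth read once vehicle control cultures reached saturation at 30 °C; 1 = growth at the plate median or of vehicle wells; lower values mean less growth of the strain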
# particulars: S. cerevisiae deletion strains, growth OD, locus YER111C, strain swi4, hits give low values
About 2,000 (36%) of roughly 5,500 compounds were called active. About 18% were inconclusive and are not listed. The list shows a part of the results.
Answers are plain numbers.

Study these solved cases before continuing.
compound	normalized growth
COc1ccc2c(C)cc(=O)oc2c1	0.992
CCN(CCO)CCCC(C)Nc1ccnc2cc(Cl)ccc12 (configuration not stated)	1
ClC1=C(Cl)C2(Cl)C3C4C=CC(C4)C3C1(Cl)C2(Cl)Cl (configuration not stated)	1

Return reported normalized growth values for all items listed beneath this line.
1. C[C@H]1CC2C([C@@H](O)C[C@@]3(C)C2CC[C@]3(O)C(=O)CO)[C@@]2(C)C=CC(=O)C=C12 (some centres not stated)
2. COc1ccc2c3c1O[C@H]1C[C@@H](O)C=C[C@@]31CCN(C)C2
3. NCCSSCCN
4. CC(CCc1ccccc1)NC(C)C(O)c1ccc(O)cc1 (configuration not stated)
5. Cc1cc(O)c(C=O)c(O)c1C(=O)O
6. CNC(C)[C@H](O)c1ccccc1 (some centres not stated)

Marked response:
1
0.997
0.989
0.999
1
1

Items follow; give normalized growth for each.
1. Cc1cccc(C)c1OCC(C)N (configuration not stated)
2. CC(=O)OCC[N+](C)(C)C

Marked response:
1.02
1.02

Exam item: For the compound "CS(=O)(=O)c1ccc(C2=C(c3ccccc3)C(=O)OC2)cc1" , what normalized growth is on record?
Marked response: 0.978
